experimentSummary: Toxicity in Sprague-Dawley rat assessed as motor coordination by rotarod test
Type: organism-based
experimentalContext: in vivo
measurementKind: TD50 (mg/kg)
Write the answer as a number in mg/kg, unit excluded.

CCCOC(=O)Cc1cc(OCC)c(OCC(=O)N(CC)CC)cc1F: 70.5
CCOC(=O)Cc1cc(OC)c(OCC(=O)N(CC)CC)cc1F: 113
CCOc1cc(CC(=O)OCC(F)(F)F)cc(F)c1OCC(=O)N(CC)CC: 127
CCOC(=O)Cc1cc(OCC)c(OCC(=O)N(CC)CC)cc1F: 74.5
CCOc1c(OCC(=O)N(CC)CC)ccc(CC(=O)OC(C)C)c1F: 165
CCOC(=O)Cc1ccc(OCC(=O)N(CC)CC)c(OCC)c1F: 200

According to the records, this molecule "CCCOC(=O)Cc1ccc(OCC(=O)N(CC)CC)c(OCC)c1F" displays TD50 of 173

Field TD50 (entry "CCCOC(=O)Cc1cc(F)c(OCC(=O)N(CC)CC)c(OCC)c1" ) reads 175

The molecule listed as CCOc1cc(CC(=O)OC(C)CC)c(F)cc1OCC(=O)N(CC)CC (centres undefined) shows TD50 equal to 90.7

In plain terms, "CCN(CC)C(=O)COc1cc(F)c(CC(=O)OCC(F)(F)F)cc1OC" has a documented TD50 of 171

Lookup result for "CCOc1cc(CC(=O)OC(C)C)c(F)cc1OCC(=O)N(CC)CC" ; measured TD50: 60.9

get_value(item= "CCOc1cc(CC(=O)OCC(F)(F)F)c(F)cc1OCC(=O)N(CC)CC" , readout=TD50) returns 113

Record summary for "CCOC(=O)Cc1cc(F)c(OCC(=O)N(CC)CC)c(OCC)c1" : reported TD50 = 224

The measured TD50 associated with "CCCCOC(=O)Cc1cc(OCC)c(OCC(=O)N(CC)CC)cc1F" reads 109

* * *

experimentSummary: Toxicity in Sprague-Dawley rat assessed as motor coordination by rotarod test
Format: organism-based
experimentalContext: in vivo
measurementKind: TD50 (mg/kg)
Give a bare numeral; the unit mg/kg is implied.

The following compounds have reported results that may help.
CCOc1c(OCC(=O)N(CC)CC)ccc(CC(=O)OCC(F)(F)F)c1F: 162
CCOc1cc(CC(=O)OC(C)C(F)(F)F)cc(F)c1OCC(=O)N(CC)CC (configuration not stated): 181
CCOc1cc(CC(=O)OC(C)C)cc(F)c1OCC(=O)N(CC)CC: 256
CCN(CC)C(=O)COc1c(F)cc(CC(=O)OCC(F)(F)F)cc1OC: 165
CCOC(=O)Cc1cc(F)c(OCC(=O)N(CC)CC)c(OC)c1: 239
CCCOC(=O)Cc1cc(OC)c(OCC(=O)N(CC)CC)cc1F: 199
CC(C)c1cccc(C(C)C)c1O: 30.7
CCCOC(=O)Cc1ccc(OCC(=O)N(CC)CC)c(OCC)c1: 82.8
CCN(CC)C(=O)COc1ccc(CC(=O)OC(C)C)c(F)c1OC: 141
CCN(CC)C(=O)COc1ccc(CC(=O)OCC(F)(F)F)c(F)c1OC: 185

Notebook: CCOc1cc(CC(=O)OC(C)C(F)(F)F)c(F)cc1OCC(=O)N(CC)CC (configuration not stated) , TD50 read as 124

// TD50 value for "CCCOC(=O)Cc1ccc(OCC(=O)N(CC)CC)c(OC)c1" : 80.6

Measured TD50 of "CCN(CC)C(=O)COc1c(F)cc(CC(=O)OC(C)C)cc1OC" : 176

Value of TD50 reported for the compound CCN(CC)C(=O)COc1ccc(CC(=O)OC(C)C(F)(F)F)c(F)c1OC (configuration not stated) is 158

For "CCN(CC)C(=O)COc1cc(F)c(CC(=O)OC(C)C)cc1OC" the compound record lists TD50 as 155

Consider "CCOC(=O)Cc1ccc(OCC(=O)N(CC)CC)c(OC)c1F" . Its measured TD50 is 201

Reported TD50 for CCOc1c(OCC(=O)N(CC)CC)ccc(CC(=O)OC(C)C(F)(F)F)c1F (configuration not stated) was 182

// field: TD50; key: "CCCOC(=O)Cc1ccc(OCC(=O)N(CC)CC)c(OC)c1F" ; value = 169

The compound listed as "CCCOc1cc(CC(=O)OC(C)C)c(F)cc1OCC(=O)N(CC)CC" has a reported TD50 of 102

Entry under test: CCN(CC)C(=O)COc1c(F)cc(CC(=O)OC(C)C(F)(F)F)cc1OC (configuration not stated) . Its TD50 was 148

Measured TD50, CCN(CC)C(=O)COc1cc(F)c(CC(=O)OC(C)C(F)(F)F)cc1OC (configuration not stated) : 151

Record "CCCOC(=O)Cc1cc(F)c(OCC(=O)N(CC)CC)c(OC)c1" . Reported TD50: 188
